- target-system: K-Ras4B bound to GDP (Homo sapiens, UniProt P01116)
- Construct: made in house; host or cells: E. coli
- measurement-notes: NMR titration (1H-15N HSQC chemical shift perturbation) of GDP-bound K-Ras4B
- Assay type: binding
- settings: NMR titration, GDP-bound 15N-enriched K-Ras4B
pKd: −log10 of the molar value.
Parameter: pKd. Scope: all listed entries.

compound | limit-qualifier | pKd
Oc1ccc(C(c2ccc(O)cc2)(C(F)(F)F)C(F)(F)F)cc1 | = | 3.46
Oc1ccc(C(F)(F)F)cc1 [AFX, 4-(Trifluoromethyl)phenol, reference compound] | < | 1.30
Oc1ccc(Cc2ccc(O)cc2)cc1 | = | 1.85
Nc1cc(C(c2ccc(O)c(N)c2)(C(F)(F)F)C(F)(F)F)ccc1O | = | 3.40
CCC(C)(c1ccc(O)cc1)c1ccc(O)cc1 [BPB, 2,2-Bis(4-hydroxyphenyl)butane] | = | 2.44
CC(c1ccc(O)cc1)c1ccc(O)cc1 [BPE, 1,1-Bis(4-hydroxyphenyl)ethane] | = | 2.19

* * *

- target-system: H-Ras (Homo sapiens, UniProt P01112)
- Sequence (P01112 whole entry): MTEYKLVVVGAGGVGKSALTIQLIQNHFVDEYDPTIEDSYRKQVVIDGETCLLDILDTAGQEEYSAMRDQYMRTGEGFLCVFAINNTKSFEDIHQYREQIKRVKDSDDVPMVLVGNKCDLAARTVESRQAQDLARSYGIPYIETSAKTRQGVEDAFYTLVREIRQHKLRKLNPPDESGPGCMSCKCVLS
pKd: −log10 of the molar value.

entry-smiles | pKd
Oc1ccc(C(c2ccc(O)cc2)(C(F)(F)F)C(F)(F)F)cc1 | 3.40

* * *

- target-system: N-Ras (1-170) (Homo sapiens, UniProt P01111)

molecule | Kd / µM
Oc1ccc(C(c2ccc(O)cc2)(C(F)(F)F)C(F)(F)F)cc1 [BPAF] | 770

* * *

- target-system: GDP-bound K-Ras4B (Homo sapiens, UniProt P01116)
- Construct: made in house; host or cells: E. coli
- Sequence (P01116 1-188 isoform P01116-2): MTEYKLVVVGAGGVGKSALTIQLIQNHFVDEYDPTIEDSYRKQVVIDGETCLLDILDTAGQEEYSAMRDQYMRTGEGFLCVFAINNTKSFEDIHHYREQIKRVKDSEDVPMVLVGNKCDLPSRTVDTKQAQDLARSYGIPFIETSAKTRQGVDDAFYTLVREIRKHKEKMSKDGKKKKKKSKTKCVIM
- measurement-notes: Shift of Y157 amide NMR resonance towards active GppNHp-bound state
- Assay type: binding
- settings: saturated ligand-protein complex
experimental-readout: shift of Y157 amide resonance relative to the frequency in the active GppNHp-bound state

compound | result
CC(C)(c1ccc(O)cc1)c1ccc(O)cc1 [BPA, 2,2-Bis(4-hydroxyphenyl)propane] | 49%
Oc1ccc(C(c2ccc(O)cc2)(C(F)(F)F)C(F)(F)F)cc1 | 58%
O=S(=O)(c1ccc(O)cc1)c1ccc(O)cc1 | 20%
